The following compounds are listed with their measured pIC50 values.
# Tested on: MeWo cells
# TEST_NAME: MTT cell viability assay on 2D MeWo culture
# Type: cell-based, human
# CONDITION_INFO: MeWo, MTT, 48 h of treatment; read-out: IC50 48 h
Conceptually, pIC50 converts a concentration in mol/L into minus its log10.

A selection of reference data follows.
> print(dat)
                                   compound  readout.label  numeric.readout
1  C[n+]1c(Cl)c(Cl)n(CC(O)c2ccccc2)[c]1[Au-][Cl] (racemic) [AuM1]          pIC50             5.51
2  C[n+]1c(Cl)c(Cl)n(CC(O)c2ccccc2)[c]1[Ag-][I] (racemic) [AgM1]          pIC50             4.83
3  C[n+]1ccn(CC(O)c2ccccc2)[c]1[Au-][Cl] (racemic) [AuL20]          pIC50             4.51

Could you now look at the following compound, please?
Q: Can you look up pIC50 on MeWo cells for C[n+]1ccn(CC(O)c2ccccc2)[c]1[Ag-][I] (racemic) [AgL20] ?
Result: 4.74

meta.source: paper PMC10303371
